# Target desc: E3 ubiquitin-protein ligase CBL (Homo sapiens)

Molecule | IC50, µM
Cc1nnc(Cn2cc(C(F)(F)F)cc(-c3cccc([C@]4(c5nncn5C)C[C@@H](C)C4)c3)c2=O)o1 | 0.33
Cn1cc(Cn2cc(C(F)(F)F)cc(-c3cccc([C@]4(c5nncn5C)C[C@@H](C)C4)c3)c2=O)nn1 | 0.04
Cn1cc(C(F)(F)F)cc(-c2cccc([C@]3(c4nncn4C)C[C@@H](C)C3)c2)c1=O | 0.88
CN1CC[C@H](Cn2cc(C(F)(F)F)cc(-c3cccc([C@]4(c5nncn5C)C[C@@H](C)C4)c3)c2=O)C1 | 0.33

###

# Target desc: E3 ubiquitin-protein ligase CBL-B (Homo sapiens, UniProt Q13191)
# Sequence (Q13191 whole entry, the tested form may be a part): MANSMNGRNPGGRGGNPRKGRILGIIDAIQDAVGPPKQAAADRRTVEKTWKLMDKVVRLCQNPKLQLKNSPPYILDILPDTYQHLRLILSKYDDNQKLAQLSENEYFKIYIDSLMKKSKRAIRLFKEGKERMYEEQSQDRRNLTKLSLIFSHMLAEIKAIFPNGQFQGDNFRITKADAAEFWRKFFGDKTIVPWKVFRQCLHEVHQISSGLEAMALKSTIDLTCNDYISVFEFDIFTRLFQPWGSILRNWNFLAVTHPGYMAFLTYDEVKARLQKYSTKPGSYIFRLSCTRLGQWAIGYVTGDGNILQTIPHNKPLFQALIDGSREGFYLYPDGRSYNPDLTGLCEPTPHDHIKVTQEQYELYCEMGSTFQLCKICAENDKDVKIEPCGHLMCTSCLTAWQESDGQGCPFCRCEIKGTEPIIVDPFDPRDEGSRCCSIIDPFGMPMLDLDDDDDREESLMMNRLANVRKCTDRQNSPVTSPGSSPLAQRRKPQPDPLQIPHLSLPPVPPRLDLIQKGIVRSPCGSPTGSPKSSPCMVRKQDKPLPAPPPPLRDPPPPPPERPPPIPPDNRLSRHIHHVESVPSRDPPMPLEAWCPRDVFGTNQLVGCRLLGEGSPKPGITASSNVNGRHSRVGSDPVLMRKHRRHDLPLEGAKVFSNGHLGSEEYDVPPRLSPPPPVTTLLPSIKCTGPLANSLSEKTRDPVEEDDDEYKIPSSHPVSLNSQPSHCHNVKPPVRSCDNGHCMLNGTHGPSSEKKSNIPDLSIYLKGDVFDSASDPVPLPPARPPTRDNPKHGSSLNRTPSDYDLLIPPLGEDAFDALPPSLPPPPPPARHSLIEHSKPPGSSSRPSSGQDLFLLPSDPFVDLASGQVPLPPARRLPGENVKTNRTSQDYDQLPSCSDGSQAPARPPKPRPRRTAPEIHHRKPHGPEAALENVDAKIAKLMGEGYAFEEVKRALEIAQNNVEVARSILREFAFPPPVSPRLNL
# Procedure details: Inhibition of biotinylated recombinant Cbl-b (36 to 427 residues)(unknown origin) expressed in Escherichia coli BL21(DE3) Tuner cells using a FAM-labeled probe by TR-FRET assay
One threshold, 80 nM, splits the recorded IC50 values: lower ones are Criterion met, equal or higher ones are Criterion not met.

Molecule | Target desc | Class
Cn1cc(C(F)(F)F)cc(-c2cccc([C@]3(c4nncn4C)C[C@@H](C)C3)c2)c1=O | E3 ubiquitin-protein ligase CBL-B (Homo sapiens, UniProt Q13191) | Criterion not met
Cn1cnnc1C[C@]1(c2cccc(-c3cc(C(F)(F)F)c[nH]c3=O)c2)C[C@H](C#N)C1 | E3 ubiquitin-protein ligase CBL-B (Homo sapiens, UniProt Q13191) | Criterion not met
Cc1nnc(Cn2cc(C(F)(F)F)cc(-c3cccc([C@]4(c5nncn5C)C[C@@H](C)C4)c3)c2=O)o1 | E3 ubiquitin-protein ligase CBL-B (Homo sapiens, UniProt Q13191) | Criterion met
Cn1cnnc1[C@]1(c2cccc(-c3cc(C(F)(F)F)c[nH]c3=O)c2)C[C@H](C)C1 | E3 ubiquitin-protein ligase CBL-B (Homo sapiens, UniProt Q13191) | Criterion not met
CN1CCC(Cn2cc(C(F)(F)F)cc(-c3cccc([C@]4(c5nncn5C)C[C@@H](C)C4)c3)c2=O)CC1 | E3 ubiquitin-protein ligase CBL-B (Homo sapiens, UniProt Q13191) | Criterion met
